MEASURED ON: Ephrin type-A receptor 1 (Homo sapiens) (UniProt P21709)
Sequence (whole entry): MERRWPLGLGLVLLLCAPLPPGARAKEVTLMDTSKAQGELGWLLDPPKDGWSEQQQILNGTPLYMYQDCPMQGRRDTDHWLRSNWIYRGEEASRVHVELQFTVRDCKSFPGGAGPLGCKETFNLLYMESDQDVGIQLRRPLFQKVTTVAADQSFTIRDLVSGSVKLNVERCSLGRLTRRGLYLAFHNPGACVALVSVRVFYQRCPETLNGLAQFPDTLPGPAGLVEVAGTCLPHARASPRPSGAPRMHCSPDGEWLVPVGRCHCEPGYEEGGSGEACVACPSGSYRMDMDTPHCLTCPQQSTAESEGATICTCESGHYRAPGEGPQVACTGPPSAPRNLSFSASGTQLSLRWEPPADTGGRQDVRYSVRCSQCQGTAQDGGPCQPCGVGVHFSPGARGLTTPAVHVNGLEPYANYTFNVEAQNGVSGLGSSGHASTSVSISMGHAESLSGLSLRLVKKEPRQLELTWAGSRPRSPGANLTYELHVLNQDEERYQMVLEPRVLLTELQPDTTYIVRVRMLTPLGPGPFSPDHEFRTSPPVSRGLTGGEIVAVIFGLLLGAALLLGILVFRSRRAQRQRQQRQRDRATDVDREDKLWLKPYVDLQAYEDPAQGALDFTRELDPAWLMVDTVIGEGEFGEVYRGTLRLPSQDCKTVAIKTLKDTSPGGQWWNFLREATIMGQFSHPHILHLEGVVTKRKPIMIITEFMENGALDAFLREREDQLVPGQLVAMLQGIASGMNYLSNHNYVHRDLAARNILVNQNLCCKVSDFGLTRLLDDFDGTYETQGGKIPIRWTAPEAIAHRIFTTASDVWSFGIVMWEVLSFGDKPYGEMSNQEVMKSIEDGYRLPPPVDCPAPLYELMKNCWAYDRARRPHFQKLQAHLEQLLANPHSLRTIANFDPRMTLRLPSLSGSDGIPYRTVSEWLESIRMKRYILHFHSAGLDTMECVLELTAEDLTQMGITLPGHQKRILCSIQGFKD
EXPERIMENTAL PARAMETERS: at 10 µM
residual activity values, listed per item
Give the quantity in %, number only.

These recorded examples may help you get a feel for the data.
# input residual activity lookup needed for CC#CC(=O)Nc1cc2c(Nc3ccc(F)c(Cl)c3)ncnc2cn1 , thanks.
# output 105

# input residual activity lookup needed for O=c1cc(-c2cccc3c2Sc2ccccc2S3)oc(N2CCOCC2)c1 , thanks.
# output 94

# input residual activity lookup needed for Cn1cnc2cc3c(Nc4cccc(Br)c4)ncnc3cc21 , thanks.
# output 49

# input residual activity lookup needed for O=C1NC(=O)/C(=C\c2ccc3nccnc3c2)S1 , thanks.
# output 90

# input residual activity lookup needed for COc1cc2ncnc(Nc3ccc(Oc4ccccc4)cc3)c2cc1OC , thanks.
# output 81

More entries:
# input residual activity lookup needed for O=[N+]([O-])c1ccc(-c2nc(-c3ccc(F)cc3)c(-c3ccncc3)[nH]2)cc1 , thanks.
# output 92

====

MEASURED ON: TGF-beta receptor type-1 (Homo sapiens)
EXPERIMENTAL PARAMETERS: at 10 µM
Description: Millipore: Percentage of residual kinase activity of TGFBR1 at 10uM relative to control. Control inhibitor: Phosphoric acid* at 0.3uM. Buffer: 8 mM MOPS pH 7.0, 0.2 mM EDTA, 1 mM MnCl2
Flag rule - residual activity less than 70% flags yes (1); the remaining entries get no (0).

# input Strictly below 70%: is that where residual activity of COc1cc2ncnc(Nc3ccc(Oc4ccccc4)cc3)c2cc1OC sits?
# output no (0)

# input Strictly below 70%: is that where residual activity of NC(=O)c1ccc2[nH]c(-c3ccc(Oc4ccc(Cl)cc4)cc3)nc2c1 sits?
# output no (0)

# input Strictly below 70%: is that where residual activity of O=c1cc(-c2cccc3c2Sc2ccccc2S3)oc(N2CCOCC2)c1 sits?
# output no (0)

# input Strictly below 70%: is that where residual activity of c1ccc(-c2n[nH]cc2-c2ccnc3ccccc23)nc1 sits?
# output yes (1)

# input Strictly below 70%: is that where residual activity of Cc1cc2ncc(-c3ccccc3)nc2cc1C sits?
# output no (0)

# input Strictly below 70%: is that where residual activity of O=Nc1c(-c2c(O)[nH]c3ccccc23)[nH]c2ccccc12 sits?
# output no (0)

# input Strictly below 70%: is that where residual activity of Cc1cccc(-c2[nH]c(C(C)(C)C)nc2-c2ccc3c(c2)OCO3)n1 sits?
# output yes (1)

# input Strictly below 70%: is that where residual activity of Nc1nc(Nc2ccc(S(N)(=O)=O)cc2)nn1C(=S)Nc1c(F)cccc1F sits?
# output yes (1)

More entries:
# input Strictly below 70%: is that where residual activity of CCN(CC)C(=O)c1ccc(Nc2nc(OCC3CCCCC3)c3nc[nH]c3n2)cc1 sits?
# output yes (1)

# input Strictly below 70%: is that where residual activity of O=C1Nc2ccccc2/C1=C1/Nc2ccccc2/C1=N\OCCC(O)CO (configuration not stated) sits?
# output yes (1)

# input Strictly below 70%: is that where residual activity of COc1ccc(OC)c2c(=S)c3ccccc3[nH]c12 sits?
# output no (0)

Data origin, for the record: ChEMBL document CHEMBL2218924
